Just for reference, paper PMC10247784 is where these values come from.

tested on: HEK293T-Gα16gust44 cells transfected with empty vector (mock); assay: Calcium imaging assay (FLIPR), empty vector control (mock); type: cell-based; conditions: Mock, sheet TAS2R4; conc. 0,001 mM
Decision: Δ F/F compared against -0.0008; not below it gives 1, below it gives 0.

[
  {
    "MOL_SMILES": "C[C@H](CCC(=O)NCC(=O)O)[C@H]1CC[C@H]2[C@@H]3[C@H](O)C[C@@H]4C[C@H](O)CC[C@]4(C)[C@H]3C[C@H](O)[C@]12C",
    "GROUP_LABEL": 1
  },
  {
    "MOL_SMILES": "C[C@H](CCC(=O)O)[C@H]1CC[C@H]2[C@@H]3[C@@H](O)C[C@@H]4C[C@H](O)CC[C@]4(C)[C@H]3CC[C@]12C",
    "GROUP_LABEL": 0
  },
  {
    "MOL_SMILES": "C[C@H](CCC(=O)NCCS(=O)(=O)O)[C@H]1CC[C@H]2[C@@H]3CC[C@@H]4C[C@H](O)CC[C@]4(C)[C@H]3CC[C@]12C",
    "GROUP_LABEL": 0
  },
  {
    "MOL_SMILES": "C[C@H](CCC(=O)O)[C@H]1CC[C@H]2[C@@H]3CC[C@@H]4C[C@H](O)CC[C@]4(C)[C@H]3C[C@H](O)[C@]12C",
    "GROUP_LABEL": 1
  },
  {
    "MOL_SMILES": "C[C@H](CCC(=O)O)[C@H]1CC[C@H]2[C@@H]3[C@H](O)C[C@@H]4C[C@H](O)CC[C@]4(C)[C@H]3C[C@H](O)[C@]12C",
    "GROUP_LABEL": 1
  }
]

----------
target: human TAS2R14 (Homo sapiens, UniProt Q9NYV8); construct: expressed in transfected cells; host or cells: HEK293T-Gα16gust44; test: Calcium imaging assay (FLIPR), HEK293T-Gα16gust44 cells transfected with human TAS2R14; type: cell-based; details: TAS2R14 trace; Time (s) 44.797 (Chenodeoxycholic Acid 44.781)
Sequence (Q9NYV8 whole entry): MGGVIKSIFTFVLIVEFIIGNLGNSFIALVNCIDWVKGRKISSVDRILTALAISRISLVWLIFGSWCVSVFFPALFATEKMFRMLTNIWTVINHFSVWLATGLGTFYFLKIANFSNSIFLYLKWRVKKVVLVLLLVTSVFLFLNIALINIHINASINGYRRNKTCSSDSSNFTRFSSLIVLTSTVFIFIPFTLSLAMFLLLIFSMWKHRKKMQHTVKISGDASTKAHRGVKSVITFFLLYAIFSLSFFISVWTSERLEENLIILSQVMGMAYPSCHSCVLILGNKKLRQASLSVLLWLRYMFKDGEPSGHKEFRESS
Decision: RLU compared against 200 RLU; not below it gives condition met, below it gives condition not met.

[
  {
    "MOLECULE": "C[C@H](CCC(=O)O)[C@H]1CC[C@H]2[C@@H]3[C@H](O)C[C@@H]4C[C@H](O)CC[C@]4(C)[C@H]3C[C@H](O)[C@]12C [Cholic Acid, cholic acid]",
    "TARGET_OR_SYSTEM": "human TAS2R14 (Homo sapiens, UniProt Q9NYV8)",
    "GROUP_LABEL": "condition met"
  },
  {
    "MOLECULE": "C[C@H](CCC(=O)NCCS(=O)(=O)O)[C@H]1CC[C@H]2[C@@H]3[C@H](O)C[C@@H]4C[C@H](O)CC[C@]4(C)[C@H]3C[C@H](O)[C@]12C [Taurocholic Acid, taurocholic acid]",
    "TARGET_OR_SYSTEM": "human TAS2R14 (Homo sapiens, UniProt Q9NYV8)",
    "GROUP_LABEL": "condition met"
  },
  {
    "MOLECULE": "C[C@H](CCC(=O)O)[C@H]1CC[C@H]2[C@@H]3[C@H](O)C[C@@H]4C[C@H](O)CC[C@]4(C)[C@H]3CC[C@]12C [Chenodeoxycholic Acid, chenodeoxycholic acid]",
    "TARGET_OR_SYSTEM": "human TAS2R14 (Homo sapiens, UniProt Q9NYV8)",
    "GROUP_LABEL": "condition met"
  },
  {
    "MOLECULE": "C[C@H](CCC(=O)NCC(=O)O)[C@H]1CC[C@H]2[C@@H]3[C@H](O)C[C@@H]4C[C@H](O)CC[C@]4(C)[C@H]3C[C@H](O)[C@]12C [Glycocholic Acid, glycocholic acid]",
    "TARGET_OR_SYSTEM": "human TAS2R14 (Homo sapiens, UniProt Q9NYV8)",
    "GROUP_LABEL": "condition met"
  },
  {
    "MOLECULE": "C[C@H](CCC(=O)NCCS(=O)(=O)O)[C@H]1CC[C@H]2[C@@H]3CC[C@@H]4C[C@H](O)CC[C@]4(C)[C@H]3CC[C@]12C [Taurolithocholic Acid, taurolithocholic acid]",
    "TARGET_OR_SYSTEM": "human TAS2R14 (Homo sapiens, UniProt Q9NYV8)",
    "GROUP_LABEL": "condition not met"
  }
]
